Please go through the items and note down their LPS % cell toxicity.
Tested on: primary rat microglia
Settings: rat
Express it in %; write the number only.

Recorded result, Cn1c(=O)c2c(ncn2C)n(C)c1=O [Caffeine] , LPS % cell toxicity: 0

// field: LPS % cell toxicity; key: Brc1c(NC2=NCCN2)ccc2nccnc12 [Brimonidine] ; value = 0

// LPS % cell toxicity value for CCCCCOC(=O)Nc1nc(=O)n([C@@H]2O[C@H](C)[C@@H](O)[C@H]2O)cc1F [Capecitabine] : 1

// Cc1ncc([N+](=O)[O-])n1CCO [Metronidazole] : LPS % cell toxicity value = 1

Measured LPS % cell toxicity of CC(=O)Nc1c(I)cc(I)c(C(=O)O)c1I [Acetrizoic acid] : 0
